- Tested on: SK-MEL-5 melanoma
- ASSAY TEXT: NCI tumour cell line growth inhibition, 48 h
Lab note: anything with TGI at or over 20 µM counts as Fulfilled; the rest go in Not fulfilled.

COMPOUND | CLASS ASSIGNMENT
CC(C)=CC(=O)C[C@H]1C(=O)O[C@@H]2C[C@H]3C(C)=CC(=O)[C@@H](O)[C@]3(C)[C@H]3[C@@]4(O)OC[C@]32[C@@H]1[C@@H](C)[C@H]4O | Not fulfilled
O=C(O)Cc1cccc2c1OC(c1ccccc1)C(Cl)(C(=O)c1ccccc1)C2=O (stereo unspecified) | Fulfilled
CCOP(=O)(CN1CCNCCNCC1)OCC | Fulfilled
Cc1cccc2c(N)c3cccc(C(=O)NCC[N+](C)(C)Cc4c([N+](=O)[O-])ncn4C)c3nc12 | Fulfilled
COC(=O)C(COC(C)=O)NC(=O)/C=C/c1ccc(O)c(OC(C)=O)c1 (stereo unspecified) | Fulfilled
CO[C@H]1C=C[C@@]23c4cc5c(cc4CO[C@]2(O)CN(C)[C@H]3C1)OCO5 | Fulfilled
COc1cc2c3c(n(C)c(=O)c2cc1OC)-c1cc2c(cc1/C3=C\CNCCCN)OCO2 | Not fulfilled
COc1ccc(/C=C\c2cc(OC)c(OC)c(OC)c2)cc1OC(=O)NCCN(C)C | Not fulfilled
COC1=CC2(C=CC1=O)c1cc(OC)c(OC)cc1CCN2C(=O)c1ccccc1 (stereo unspecified) | Fulfilled
Nc1ncn(C2CC(O)C(CO)O2)c(=O)n1 (stereo unspecified) | Fulfilled
O=C1CCCC2(c3ccccc3)Nc3ccccc3N12 (stereo unspecified) | Fulfilled
C/C=C(\C)CC/C=C/CO[Si](C)(C)C(C)(C)C | Fulfilled
CC(=O)OCCOCn1cnc2c(Cl)nc(Cl)nc21 | Fulfilled
CN1C2CCC1CC(CCNC(c1ccccc1)c1ccccc1)C2 (stereo unspecified) | Fulfilled
Cc1ccc(NC(=O)NCCCOc2ccc(N3C(N)=NC(N)=NC3(C)C)cc2Cl)cc1S(=O)(=O)F | Fulfilled
COc1ccc(N2C(=O)c3cc(C)cnc3S2(=O)=O)cc1 | Fulfilled
O=S1(=O)N(CCNc2nccc(-c3c(-c4cccc(O)c4)nc4sccn34)n2)CCN1Cc1ccccc1 | Not fulfilled
C=C1CC[C@@H]2[C@](C)(COC(C)=O)[C@H](OC(C)=O)CC[C@@]2(C)[C@@H]1CC(Nc1ccc(S(=O)(=O)Nc2ncccn2)cc1)C1=CCOC1=O (stereo partly specified) | Not fulfilled
CCCCCCCCCCN(CCCCCCCCCC)C(=O)COc1c2cc(C(C)(C)C)cc1Cc1cc(C(C)(C)C)cc(c1OCC(=O)N(CCCCCCCCCC)CCCCCCCCCC)Cc1cc(C(C)(C)C)cc(c1OCC(=O)N(CCCCCCCCCC)CCCCCCCCCC)Cc1cc(C(C)(C)C)cc(c1OCC(=O)N(CCCCCCCCCC)CCCCCCCCCC)C2 | Fulfilled
COc1ccc(C2C3=C(Nc4ncnn42)c2ccccc2OC3c2ccccc2)cc1 (stereo unspecified) | Fulfilled
CC(C)(C)[Si](C)(C)OCC1OC(n2cc(I)c(N)nc2=O)C(O[Si](C)(C)C(C)(C)C)C1O[Si](C)(C)C(C)(C)C (stereo unspecified) | Fulfilled
CCc1ccc(Nc2ccc([N+](=O)[O-])cc2[N+](=O)[O-])cc1 | Fulfilled
CCOC(=O)c1c(C)nc2c(c1N)/C(=C/c1ccc(OC)cc1)C(=O)N2Cc1ccc(F)cc1 | Not fulfilled
Cc1ccc2[nH]c(C(=O)NN3C(=O)C(C)SC34CCCC(C)C4)c(-c3ccccc3)c2c1 (stereo unspecified) | Fulfilled
C=C(CC[C@@H](C)[C@H]1CC[C@@]2(C)C3=C(CC[C@]12C)[C@@]1(C)CC[C@H](O)[C@@H](C)C1CC3)C(C)C (stereo partly specified) | Not fulfilled
COC(=O)C(=O)C(C(=O)C=C(C)C)C(=O)C(=O)Nc1ccc(C)cc1C (stereo unspecified) | Fulfilled
O=C(/C=C\n1cnc(-c2cc(C(F)(F)F)cc(C(F)(F)F)c2)n1)NNc1cnccn1 | Not fulfilled
N#Cc1c(-c2ccccc2)cc(Nc2cccc(C(F)(F)F)c2)n2c1nc1ccccc12 | Not fulfilled
O=C(/C(=C/c1cccc([N+](=O)[O-])c1)c1ccccc1)c1ccccc1 | Not fulfilled
c1csc(-c2cc(-c3cccs3)c(-c3ccsc3)s2)c1 | Fulfilled
N#CCc1ccc(C(C#N)/C(CCCC(=O)Nc2cccc([N+](=O)[O-])c2)=N/NC(N)=S)cc1 (stereo unspecified) | Fulfilled
COC(=O)C1C(=O)C=CN([C@H](C)c2ccccc2)[C@@H]1Cc1ccc(OC)c(OCc2ccccc2)c1I (stereo partly specified) | Fulfilled
OC/C=C(\I)CCCOCOCc1ccccc1 | Fulfilled
Cc1nn(C(=O)Cc2ccccc2)c2c1C(c1ccc(N(C)C)cc1)SC(N)=N2 (stereo unspecified) | Fulfilled
CC1=CC(=O)N(n2c(Cc3ccccc3)n[nH]c2=O)C1=O | Fulfilled

The reported measurements were obtained from PubChem BioAssay (NCI).
